// data source = patent US8247211B2

system: Streptococcus sp.; assay: In vitro antibacterial evaluation: minimum inhibitory concentration (MIC), broth dilution method; format: cell-based; conditions: broth dilution, 18 hours at 35° C.
Numbered stars: 1 amine (or outer) side, 2 acyl side, 3 side chain; on linkers, the order of the positions; unused ones are H or OH. Square brackets hold non-standard residues; d marks the D form. Peptide text beside a SMILES is read from it. ξ: configuration not given here. X1 = N=C1NCC(C(O)C(N[*:1])C(=O)[*:2])N1C1OC(CO)C(O)C(O)C1O; ξEnduracididine(βξ-OH,4'ξ) = N=C1NCC(C(O)C(N)C(=O)O)N1; ξCha(3ξ-Me) = CC(C1CCCCC1)C(N)C(=O)O; Cha = N[CH](CC1CCCCC1)C(=O)O
Recorded MIC Streptococcus agalactiae (GC 4564) by entry

[
  {
    "compound": "CC(c1ccccc1)C1NC(=O)CNC(=O)C(CO)NC(=O)C(C(O)C2CNC(=N)N2C2OC(CO)C(O)C(O)C2O)NC(=O)C(C(O)C2CNC(=N)N2)NC(=O)C(Cc2ccc3oc(SCc4ccccc4)nc3c2)NC1=O (stereo not shown)",
    "rel": "=",
    "MIC Streptococcus agalactiae (GC 4564) [µg/mL]": 16
  },
  {
    "compound": "CC(C1CCCCC1)C1NC(=O)CNC(=O)C(CO)NC(=O)C(C(O)C2CNC(=N)N2C2OC(CO)C(O)C(O)C2O)NC(=O)C(C(O)C2CNC(=N)N2)NC(=O)C(CC2CCCCC2)NC1=O (stereo not drawn) [Example 53] (cyclo(G[ξCha(3ξ-Me)][Cha][ξEnduracididine(βξ-OH,4'ξ)][X1]S); configuration not given here)",
    "rel": "=",
    "MIC Streptococcus agalactiae (GC 4564) [µg/mL]": 1
  },
  {
    "compound": "CC(c1ccccc1)C1NC(=O)CNC(=O)C(CO)NC(=O)C(C(O)C2CNC(=N)N2C2OC(CO)C(O)C(O)C2O)NC(=O)C(C(O)C2CNC(=N)N2)NC(=O)C(Cc2ccc3oc(-c4ccc(OCc5ccccc5)cc4)nc3c2)NC1=O (stereo not shown)",
    "rel": "=",
    "MIC Streptococcus agalactiae (GC 4564) [µg/mL]": 32
  },
  {
    "compound": "CC(c1ccccc1)C1NC(=O)CNC(=O)C(CO)NC(=O)C(C(O)C2CNC(=N)N2C2OC(CO)C(O)C(O)C2O)NC(=O)C(C(O)C2CNC(=N)N2)NC(=O)C(Cc2ccc(O)c(NC(=S)Nc3cc(C(F)(F)F)cc(C(F)(F)F)c3)c2)NC1=O (stereo not shown)",
    "rel": ">",
    "MIC Streptococcus agalactiae (GC 4564) [µg/mL]": 64
  },
  {
    "compound": "CC(c1ccccc1)C1NC(=O)CNC(=O)C(CO)NC(=O)C(C(O)C2CNC(=N)N2C2OC(CO)C(O)C(O)C2O)NC(=O)C(C(O)C2CNC(=N)N2)NC(=O)C(Cc2ccc3oc(SCc4ccc(-c5ccccc5)cc4)nc3c2)NC1=O (stereo not shown)",
    "rel": "=",
    "MIC Streptococcus agalactiae (GC 4564) [µg/mL]": 2
  },
  {
    "compound": "CC(c1ccccc1)C1NC(=O)CNC(=O)C(CO)NC(=O)C(C(O)C2CNC(=N)N2C2OC(CO)C(O)C(O)C2O)NC(=O)C(C(O)C2CNC(=N)N2)NC(=O)C(Cc2ccc3oc(-c4ccoc4)nc3c2)NC1=O (stereo not shown)",
    "rel": "=",
    "MIC Streptococcus agalactiae (GC 4564) [µg/mL]": 32
  },
  {
    "compound": "CC(c1ccccc1)C1NC(=O)CNC(=O)C(CO)NC(=O)C(C(O)C2CNC(=N)N2C2OC(CO)C(O)C(O)C2O)NC(=O)C(C(O)C2CNC(=N)N2)NC(=O)C(Cc2ccc3oc(-c4ccc(N(C)C)cc4)nc3c2)NC1=O (stereo not shown)",
    "rel": "=",
    "MIC Streptococcus agalactiae (GC 4564) [µg/mL]": 32
  }
]

----------
Recorded MIC Coagulase Negative Staphylococcus (GC 4547) by entry
system: Staphylococcus sp.; experiment: In vitro antibacterial evaluation: minimum inhibitory concentration (MIC), broth dilution method; type: cell-based; conditions: broth dilution, 5×10^5 CFU/mL, 18 hours at 35° C.
measurementLabel: MIC Coagulase Negative Staphylococcus (GC 4547) (µg/mL)

[
  {
    "compound": "COC1CCC2(C)C(CCC3C2CCC2(C)C(C(C)CCC4OCC5OC(OC6C(CO)OC(Oc7ccc(CC8NC(=O)C(C(C)c9ccccc9)NC(=O)CNC(=O)C(CO)NC(=O)C(C(O)C9CNC(=N)N9C9OC(CO)C(O)C(O)C9O)NC(=O)C(C(O)C9CNC(=N)N9)NC8=O)cc7)C(O)C6O)C(O)C(O)C5O4)CCC32)C1 (stereo not shown) [Example 130]",
    "readingUnit": "µg/mL",
    "result": 32
  },
  {
    "compound": "COc1cc(C2OCC3OC(OC4C(CO)OC(Oc5ccc(CC6NC(=O)C(C(C)c7ccccc7)NC(=O)CNC(=O)C(CO)NC(=O)C(C(O)C7CNC(=N)N7C7OC(CO)C(O)C(O)C7O)NC(=O)C(C(O)C7CNC(=N)N7)NC6=O)cc5)C(O)C4O)C(O)C(O)C3O2)ccc1[N+](=O)[O-] (stereo not shown) [Example 153]",
    "readingUnit": "µg/mL",
    "result": 1
  },
  {
    "compound": "CC(c1ccccc1)C1NC(=O)CNC(=O)C(CO)NC(=O)C(C(O)C2CNC(=N)N2C2OC(CO)C(O)C(O)C2O)NC(=O)C(C(O)C2CNC(=N)N2)NC(=O)C(Cc2ccc(OC3OC(CO)C(OC4OC5COC(c6cccc(-c7ccccc7)c6)OC5C(O)C4O)C(O)C3O)cc2)NC1=O (stereo not shown) [Example 154]",
    "readingUnit": "µg/mL",
    "result": 2
  },
  {
    "compound": "COc1cc(OC)cc(C2OCC3OC(OC4C(CO)OC(Oc5ccc(CC6NC(=O)C(C(C)c7ccccc7)NC(=O)CNC(=O)C(CO)NC(=O)C(C(O)C7CNC(=N)N7C7OC(CO)C(O)C(O)C7O)NC(=O)C(C(O)C7CNC(=N)N7)NC6=O)cc5)C(O)C4O)C(O)C(O)C3O2)c1 (stereo not shown) [Example 150]",
    "readingUnit": "µg/mL",
    "result": 2
  }
]

----------
Recorded MIC Streptococcus agalactiae (GC 4564) by entry
system: Streptococcus sp.; assay: In vitro antibacterial evaluation: minimum inhibitory concentration (MIC), broth dilution method; format: cell-based; settings: Streptococcus agalactiae (GC 4564); 18 hours at 35° C.
Numbered stars: 1 amine (or outer) side, 2 acyl side, 3 side chain; on linkers, the order of the positions; unused ones are H or OH. Square brackets hold non-standard residues; d marks the D form. Peptide text beside a SMILES is read from it. * marks the point of attachment. ξ: configuration not given here. X1 = N=C1NCC(C(O)C(N[*:1])C(=O)[*:2])N1C1OC(CO)C(O)C(O)C1O; ξEnduracididine(βξ-OH,4'ξ) = N=C1NCC(C(O)C(N)C(=O)O)N1; ξPhe(4-Cl,βξ-Me) = CC(c1ccc(Cl)cc1)C(N)C(=O)O; X2 = OCC1OC(OC2C(CO)OC(*)C(O)C2O)C(O)C(O)C1O

[
  {
    "compound": "CC(c1ccccc1)C1NC(=O)CNC(=O)C(CO)NC(=O)C(C(O)C2CNC(=N)N2C2OC(CO)C(O)C(O)C2O)NC(=O)C(C(O)C2CNC(=N)N2)NC(=O)C(Cc2ccc(OC3OC(CO)C(OC4OC5COC6(CC7CCC6(C)C7(C)C)OC5C(O)C4O)C(O)C3O)cc2)NC1=O (stereo not shown)",
    "rel": "<",
    "MIC Streptococcus agalactiae (GC 4564) / µg/mL": 0.12
  },
  {
    "compound": "CC(c1ccc(F)cc1)C1NC(=O)CNC(=O)C(CO)NC(=O)C(C(O)C2CNC(=N)N2C2OC(CO)C(O)C(O)C2O)NC(=O)C(C(O)C2CNC(=N)N2)NC(=O)C(Cc2ccc(OC3OC(CO)C(OC4OC(CO)C(O)C(O)C4O)C(O)C3O)cc2)NC1=O (stereo not shown) [Example 261a]",
    "rel": ">",
    "MIC Streptococcus agalactiae (GC 4564) / µg/mL": 64
  },
  {
    "compound": "Cc1ccc(COCC2OC(OC3C(CO)OC(Oc4ccc(CC5NC(=O)C(C(C)c6ccccc6)NC(=O)CNC(=O)C(CO)NC(=O)C(C(O)C6CNC(=N)N6C6OC(CO)C(O)C(O)C6O)NC(=O)C(C(O)C6CNC(=N)N6)NC5=O)cc4)C(O)C3O)C(O)C(O)C2O)cc1 (stereo not shown)",
    "rel": "=",
    "MIC Streptococcus agalactiae (GC 4564) / µg/mL": 0.5
  },
  {
    "compound": "CC(C1CCCCC1)C1NC(=O)CNC(=O)C(CO)NC(=O)C(C(O)C2CNC(=N)N2C2OC(CO)C(O)C(O)C2O)NC(=O)C(C(O)C2CNC(=N)N2)NC(=O)C(Cc2ccc(OC3OC(CO)C(OC4OC5COC(c6ccccc6)OC5C(O)C4O)C(O)C3O)cc2)NC1=O (stereo not shown)",
    "rel": "<",
    "MIC Streptococcus agalactiae (GC 4564) / µg/mL": 0.12
  },
  {
    "compound": "COc1ccc2cc(COCC3OC(OC4C(CO)OC(Oc5ccc(CC6NC(=O)C(C(C)c7ccccc7)NC(=O)CNC(=O)C(CO)NC(=O)C(CC7CNC(=N)N7C7OC(CO)C(O)C(O)C7O)NC(=O)C(CC7CNC(=N)N7)NC6=O)cc5)C(O)C4O)C(O)C(O)C3O)ccc2c1 (stereo not shown)",
    "rel": "=",
    "MIC Streptococcus agalactiae (GC 4564) / µg/mL": 4
  },
  {
    "compound": "CC(c1ccc(Cl)cc1)C1NC(=O)CNC(=O)C(CO)NC(=O)C(C(O)C2CNC(=N)N2C2OC(CO)C(O)C(O)C2O)NC(=O)C(C(O)C2CNC(=N)N2)NC(=O)C(Cc2ccc(OC3OC(CO)C(OC4OC(CO)C(O)C(O)C4O)C(O)C3O)cc2)NC1=O (stereo not drawn) [Example 262a] (cyclo(G[ξPhe(4-Cl,βξ-Me)]Y(X2)[ξEnduracididine(βξ-OH,4'ξ)][X1]S); configuration not given here)",
    "rel": "=",
    "MIC Streptococcus agalactiae (GC 4564) / µg/mL": 32
  },
  {
    "compound": "CC(c1ccccc1)C1NC(=O)CNC(=O)C(CO)NC(=O)C(C(O)C2CNC(=N)N2C2OC(CO)C(O)C(O)C2O)NC(=O)C(C(O)C2CNC(=N)N2)NC(=O)C(Cc2ccc(OC3OC(CO)C(OC4OC5COC6(CCCCCCCCCCCC6)OC5C(O)C4O)C(O)C3O)cc2)NC1=O (stereo not shown)",
    "rel": "=",
    "MIC Streptococcus agalactiae (GC 4564) / µg/mL": 0.25
  }
]
